Target: AIF/CHCHD4 (Homo sapiens)
Construct: The AIF103-613 protein (AIF protein fragment 103-613) and CHCHD4 protein were produced in BL21 + DE3 bacteria; made in house; host or cells: E. coli BL21 + DE3 (RIPL)
Assay: AlphaScreen (ALPHA) assay of the AIF103-613/CHCHD4 interaction
Assay type: binding
Details: obtained manually using the Alphascreen assay; read-out: IC50 AIF/CHCHD4
pIC50: −log10 of the molar value. Where a name gives a salt, the structure may show the parent alone.
Parameter measured: pIC50

In the examples that follow, each entry is paired with its recorded pIC50.
Compound: CCN(CC)C(=S)SSC(=S)N(CC)CC [Disulfiram]
Observed result: 6.38
//
Compound: CSc1ccc2c(c1)N(CCC1CCCCN1C)c1ccccc1S2 (stereo not shown) [Thioridazine hydrochloride]
Observed result: 4.62

P = CCSc1ccc2c(c1)N(CCCN1CCN(C)CC1)c1ccccc1S2.O=C(O)CC(O)C(=O)O.O=C(O)CC(O)C(=O)O [Thiethylperazine dimalate]
Q = CO[C@H]1/C=C/O[C@@]2(C)Oc3c(C)c(O)c4c(O)c(c(/C=N/N5CCN(C6CCCC6)CC5)c(O)c4c3C2=O)NC(=O)/C(C)=C\C=C\[C@H](C)[C@H](O)[C@@H](C)[C@@H](O)[C@@H](C)[C@H](OC(C)=O)[C@@H]1C [Rifapentine]
query: Would you kindly point out which of P and Q has the smaller pIC50 figure? In your reply, give the label of the chosen option.
result: P
(P: 4.97, Q: 5.32)

---

Measured Cellular toxicity, listed per entry.
Test system: A549 non-small-cell lung cancer cells
Test: Cytotoxicity by lactate dehydrogenase (LDH) release in A549 cells
Type: cell-based, human
Conditions: A549, 3 h treatment; lowest dose tested for which a toxicity greater than 20% was measured
Where a name gives a salt, the structure may show the parent alone.
Output spec: scalar in µM, unitless text.

Compound: COC(=O)C1=C(C)NC(C)=C(C(=O)OC2CCCN(Cc3ccccc3)C2)[C@@H]1c1cccc([N+](=O)[O-])c1 (stereo partly drawn) [Benidipine hydrochloride]
Assay target: A549 non-small-cell lung cancer cells
Cellular toxicity [µM]: 10

query: Tell us which Cellular toxicity value is on record for CCSc1ccc2c(c1)N(CCCN1CCN(C)CC1)c1ccccc1S2.O=C(O)CC(O)C(=O)O.O=C(O)CC(O)C(=O)O [Thiethylperazine dimalate]
result: 10

query: Tell us which Cellular toxicity value is on record for CSc1ccc2c(c1)N(CCC1CCCCN1C)c1ccccc1S2 (stereo not drawn) [Thioridazine hydrochloride]
result: 1

query: Tell us which Cellular toxicity value is on record for CO[C@H]1/C=C/O[C@@]2(C)Oc3c(C)c(O)c4c(O)c(c(/C=N/N5CCN(C6CCCC6)CC5)c(O)c4c3C2=O)NC(=O)/C(C)=C\C=C\[C@H](C)[C@H](O)[C@@H](C)[C@@H](O)[C@@H](C)[C@H](OC(C)=O)[C@@H]1C
result: 10

query: Tell us which Cellular toxicity value is on record for NCCNCCNCCNCCN
result: 10

query: Tell us which Cellular toxicity value is on record for CCN(CC)C(=S)SSC(=S)N(CC)CC
result: 3

---

Molecular target: AIF/CHCHD4 (Homo sapiens, UniProt O95831)
Construct: The AIF103-613 protein (AIF protein fragment 103-613) and CHCHD4 protein were produced in BL21 + DE3 bacteria; made in house; host or cells: E. coli BL21 + DE3 (RIPL)
Sequence (O95831 103-613 limits assumed): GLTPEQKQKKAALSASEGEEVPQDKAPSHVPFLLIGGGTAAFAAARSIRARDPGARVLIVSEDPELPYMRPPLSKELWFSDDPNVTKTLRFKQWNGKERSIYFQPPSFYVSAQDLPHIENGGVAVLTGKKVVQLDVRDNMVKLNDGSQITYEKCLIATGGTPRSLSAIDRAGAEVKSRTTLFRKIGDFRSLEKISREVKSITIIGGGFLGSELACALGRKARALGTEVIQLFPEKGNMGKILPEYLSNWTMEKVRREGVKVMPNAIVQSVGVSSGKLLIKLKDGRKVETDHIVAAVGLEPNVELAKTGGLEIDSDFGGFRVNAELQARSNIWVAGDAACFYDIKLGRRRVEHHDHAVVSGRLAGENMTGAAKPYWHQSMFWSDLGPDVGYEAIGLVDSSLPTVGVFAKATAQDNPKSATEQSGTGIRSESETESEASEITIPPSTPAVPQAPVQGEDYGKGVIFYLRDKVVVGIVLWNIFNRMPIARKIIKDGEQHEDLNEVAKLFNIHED
Experiment: AlphaScreen (ALPHA) assay of the AIF103-613/CHCHD4 interaction
Format: binding
Settings: obtained manually using the Alphascreen assay; read-out: IC50 AIF/CHCHD4
Procedure: […] A library of 1280 small molecules, supplied by Prestwick Chemicals (Prestwick Chemical Library®) was screened. […] The analysis of the results was carried out by means of an EnSpire® multimode plate reader (PerkinElmer). […] In addition, for each compound thus selected, the dose-effect relationship of the compound is determined. […]
Counter-ions that a name gives are not always drawn.
Parameter measured: IC50 (µM)
Output spec: scalar in µM, unitless text.

Compound: NCCNCCNCCNCCN
Assay target: AIF/CHCHD4 (Homo sapiens, UniProt O95831)
IC50 / µM: 9

Compound: COC(=O)C1=C(C)NC(C)=C(C(=O)OC2CCCN(Cc3ccccc3)C2)[C@@H]1c1cccc([N+](=O)[O-])c1 (stereo partly drawn) [Benidipine hydrochloride]
Assay target: AIF/CHCHD4 (Homo sapiens, UniProt O95831)
IC50 / µM: 8

Turning to the following compound.
query: Tell us which IC50 value is on record for COc1cc(-c2ccc(N=Nc3ccc4c(S(=O)(=O)O)cc(S(=O)(=O)O)c(N)c4c3O)c(OC)c2)ccc1N=Nc1ccc2c(S(=O)(=O)O)cc(S(=O)(=O)O)c(N)c2c1O [Chicago sky blue 6B]
result: 1.44
